Provenance of the data: patent US20220317138A1

# assayed target: beta-lactamase class D OXA-48 (Klebsiella pneumoniae, UniProt Q6XEC0)
# Sequence (Q6XEC0 23-265 limits assumed): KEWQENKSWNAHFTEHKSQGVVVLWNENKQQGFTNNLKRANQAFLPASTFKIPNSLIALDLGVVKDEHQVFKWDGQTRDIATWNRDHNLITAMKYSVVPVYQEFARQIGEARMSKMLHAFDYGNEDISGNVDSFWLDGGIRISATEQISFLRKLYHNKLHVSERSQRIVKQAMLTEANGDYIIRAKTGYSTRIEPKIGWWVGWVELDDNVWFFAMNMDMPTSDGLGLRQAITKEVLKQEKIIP
# Format: biochemical
Numbered stars: 1 amine (or outer) side, 2 acyl side, 3 side chain; on linkers, the order of the positions; unused ones are H or OH. Bridge positions count the residues as written; N and C are the ends. Square brackets hold non-standard residues; d marks the D form. Peptide text beside a SMILES is read from it. * marks the point of attachment. pTerphenylCO(4''-OnC5H11) = CCCCCOc1ccc(-c2ccc(-c3ccc(C(=O)*)cc3)cc2)cc1; Orn(4R-OH,5R-OH) = O=C([C@H](C[C@@H](O)[C@@H](O)N[*:3])N[*:1])[*:2]; hTyr(3S-OH,4S-OH) = N[C@H](C(=O)O)[C@H](O)[C@@H](O)c1ccc(O)cc1; Pro(3S-OH,4S-Me) = C[C@H]1CN[C@H](C(=O)O)[C@H]1O; Hyp = O=C(O)[C@@H]1C[C@@H](O)CN1
assay endpoint: [meropenem] (mg/L) Replicates 3
Write down the numeric answer in mg/L and omit the unit.

For orientation, consider the following solved cases.
[
  {
    "molecule": "C=CC[C@@H]1/C=C(\\C)C[C@H](C)C[C@H](OC)[C@H]2O[C@@](O)(C(=O)C(=O)N3CCCC[C@H]3C(=O)O[C@H](/C(C)=C/[C@@H]3CC[C@@H](O)[C@H](OC)C3)[C@H](C)[C@@H](O)CC1=O)[C@H](C)C[C@@H]2OC.O",
    "experimental value": -0.02
  },
  {
    "molecule": "[Ca+2].[Cl-].[Cl-]",
    "experimental value": -0.09
  },
  {
    "molecule": "COc1ccnc(C[S+]([O-])c2nc3cc(OC(F)F)ccc3[nH]2)c1OC (centres unmarked)",
    "experimental value": -0.05
  }
]

Supply reported [meropenem] (mg/L) Replicates 3 belonging to this molecule: CCCCCOc1ccc(-c2ccc(-c3ccc(C(=O)N[C@H]4C[C@@H](O)[C@@H](O)NC(=O)[C@@H]5[C@@H](O)[C@@H](C)CN5C(=O)[C@H]([C@@H](C)O)NC(=O)[C@H]([C@H](O)[C@@H](O)c5ccc(O)cc5)NC(=O)[C@@H]5C[C@@H](O)CN5C(=O)[C@H]([C@@H](C)O)NC4=O)cc3)cc2)cc1 [Anidulafungin] ({pTerphenylCO(4''-OnC5H11)}-[Orn(4R-OH,5R-OH)]T[Hyp][hTyr(3S-OH,4S-OH)]T[Pro(3S-OH,4S-Me)]; lactam 1-C)
0.14

Entry O=C1NC(=O)C(c2ccccc2)(c2ccccc2)N1 needs its [meropenem] (mg/L) Replicates 3 filled in; supply it.
0.02

Specify [meropenem] (mg/L) Replicates 3 for Cc1ncc2n1-c1ccc(Cl)cc1C(c1ccccc1F)=NC2 and stop.
-0.06

Determine its reported [meropenem] (mg/L) Replicates 3: CC[C@H](C)C[C@H](C)CCCCCCCCC(=O)N[C@H]1C[C@@H](O)[C@@H](NCCN)NC(=O)[C@@H]2[C@@H](O)CCN2C(=O)[C@H]([C@H](O)CCN)NC(=O)[C@H]([C@H](O)[C@@H](O)c2ccc(O)cc2)NC(=O)[C@@H]2C[C@@H](O)CN2C(=O)[C@H]([C@@H](C)O)NC1=O
0.07

Using known records, supply [meropenem] (mg/L) Replicates 3 for CCCC(CCC)C(=O)[O-].[Na+]
-0.09
